Numbers sourced from ChEMBL document CHEMBL3243931.

# Assay Summary: Increase in RNA content in mouse epidermal cells at 10 nM after 3 days
# Format: functional
Endpoint Label: Activity
Write the quantity with the unit trailing the number.

Solved cases below.
# Molecule, Val
rows = [
    ("COC(=O)/C=C(\\C)CC/C=C(C)/C=C/C1=C(C)CCCC1(C)C", "9%"),
    ("COC(=O)/C=C(C)/C=C/C=C(C)/C=C/C1=C(C)CCCC1(C)C", "25%"),
    ("CC1=C(/C=C/C(C)=C/C=C/C(C)=C/C(=O)O)C(C)(C)CCC1", "100%"),
    ("CCOC(=O)CC(C)/C=C/C=C(C)/C=C/C1=C(C)CCCC1(C)C (stereo unspecified)", "12%"),
    ("CC1=C(/C=C/C(C)C/C=C/C(C)=C/C(=O)O)C(C)(C)CCC1 (racemic)", "28%"),
]

Could you share which Activity value was measured for "CCOC(=O)/C=C(C)/C=C/C=C(C)/C=C/C1=C(C)CCCC1(C)C" ? 57%
